These data points were gathered from paper PMC12799362.

- experimental.system: tyrosyl-DNA phosphodiesterase 2 (TDP2) (Homo sapiens)
- Construct: made in house; host or cells: E. coli
- Sequence (O95551 1-362): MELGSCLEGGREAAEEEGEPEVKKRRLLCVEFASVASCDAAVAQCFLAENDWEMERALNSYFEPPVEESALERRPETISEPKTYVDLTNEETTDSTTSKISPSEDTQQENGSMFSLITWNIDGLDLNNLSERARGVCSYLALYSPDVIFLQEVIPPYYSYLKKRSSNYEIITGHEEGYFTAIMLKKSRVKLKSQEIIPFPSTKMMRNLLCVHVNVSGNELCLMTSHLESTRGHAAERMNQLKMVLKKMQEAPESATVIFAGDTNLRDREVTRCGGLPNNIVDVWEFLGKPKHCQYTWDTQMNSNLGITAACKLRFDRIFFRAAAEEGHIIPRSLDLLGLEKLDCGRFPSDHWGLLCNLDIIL
- test.details: TDP2 activity, removal of 5′-tyrosine from oligonucleotide substrate, denaturing PAGE
- Format: biochemical
- condition.info: inhibitor 500 μM, TDP2 200 nM, substrate 100 nM, 10 min, 37 °C; mean ± SD; read-out: TDP2 % of residual activity (500 μM)
- Text: Recombinant human proteins tyrosyl-DNA phosphodiesterase 1 (TDP1) and tyrosyl-DNA phosphodiesterase 2 (TDP2) were expressed in the E. coli system, poly(ADP-ribose) polymerase 1 (PARP1) and poly(ADP-ribose) polymerase 2 (PARP2) were expressed in insect cells using a baculovirus expression system and purified as described in (Sukhanova et al., 2004; Sherstyuk et al., 2019; Dyrkheeva et al., 2020, 2021). Determination of TDP2 activity. […]
Recorded remaining activity at 500 µM by entry
endpoint.label: remaining activity at 500 µM

smiles_string=CCCn1cc(NC(=O)CCCCCC(=O)Nc2cc(-c3nc4ccc(-c5nc6ccc(N7CCN(C)CC7)cc6[nH]5)cc4[nH]3)n(CCC)c2)cc1-c1nc2ccc(-c3nc4ccc(N5CCN(C)CC5)cc4[nH]3)cc2[nH]1 experimental_system="tyrosyl-DNA phosphodiesterase 2 (TDP2) (Homo sapiens)" endpoint_label="remaining activity at 500 µM" result=~100%
smiles_string=CCCn1cc(NC(=O)CCCC(=O)Nc2cc(-c3nc4ccc(-c5nc6ccc(N7CCN(C)CC7)cc6[nH]5)cc4[nH]3)n(CCC)c2)cc1-c1nc2ccc(-c3nc4ccc(N5CCN(C)CC5)cc4[nH]3)cc2[nH]1 experimental_system="tyrosyl-DNA phosphodiesterase 2 (TDP2) (Homo sapiens)" endpoint_label="remaining activity at 500 µM" result=70%
smiles_string=CN1CCN(c2ccc3nc(-c4ccc5nc(-c6ccc7nc(CNC(=O)CCCCCCCCCC(=O)NCc8nc9ccc(-c%10nc%11ccc(-c%12nc%13ccc(N%14CCN(C)CC%14)cc%13[nH]%12)cc%11[nH]%10)cc9[nH]8)[nH]c7c6)[nH]c5c4)[nH]c3c2)CC1 experimental_system="tyrosyl-DNA phosphodiesterase 2 (TDP2) (Homo sapiens)" endpoint_label="remaining activity at 500 µM" result=~100%
smiles_string=CN1CCN(c2ccc3nc(-c4ccc5nc(-c6ccc7nc(CNC(=O)CCCN8CCN(CCCC(=O)NCc9nc%10ccc(-c%11nc%12ccc(-c%13nc%14ccc(N%15CCN(C)CC%15)cc%14[nH]%13)cc%12[nH]%11)cc%10[nH]9)CC8)[nH]c7c6)[nH]c5c4)[nH]c3c2)CC1 experimental_system="tyrosyl-DNA phosphodiesterase 2 (TDP2) (Homo sapiens)" endpoint_label="remaining activity at 500 µM" result=~100%
smiles_string=CN1CCN(c2ccc3nc(-c4ccc5nc(CNC(=O)CCCCN6CCN(CCCCC(=O)NCc7nc8ccc(-c9nc%10ccc(N%11CCN(C)CC%11)cc%10[nH]9)cc8[nH]7)CC6)[nH]c5c4)[nH]c3c2)CC1 experimental_system="tyrosyl-DNA phosphodiesterase 2 (TDP2) (Homo sapiens)" endpoint_label="remaining activity at 500 µM" result=44%
smiles_string=CCCn1cc(NC(=O)CCCCCCCCCC(=O)Nc2cc(-c3nc4ccc(-c5nc6ccc(N7CCN(C)CC7)cc6[nH]5)cc4[nH]3)n(CCC)c2)cc1-c1nc2ccc(-c3nc4ccc(N5CCN(C)CC5)cc4[nH]3)cc2[nH]1 experimental_system="tyrosyl-DNA phosphodiesterase 2 (TDP2) (Homo sapiens)" endpoint_label="remaining activity at 500 µM" result=~100%
smiles_string=CN1CCN(c2ccc3nc(-c4ccc5nc(CN)[nH]c5c4)[nH]c3c2)CC1 experimental_system="tyrosyl-DNA phosphodiesterase 2 (TDP2) (Homo sapiens)" endpoint_label="remaining activity at 500 µM" result=~100%
smiles_string=CN1CCN(c2ccc3nc(-c4ccc5nc(-c6ccc7nc(CNC(=O)CCCCN8CCN(CCCCC(=O)NCc9nc%10ccc(-c%11nc%12ccc(-c%13nc%14ccc(N%15CCN(C)CC%15)cc%14[nH]%13)cc%12[nH]%11)cc%10[nH]9)CC8)[nH]c7c6)[nH]c5c4)[nH]c3c2)CC1 experimental_system="tyrosyl-DNA phosphodiesterase 2 (TDP2) (Homo sapiens)" endpoint_label="remaining activity at 500 µM" result=~100%
smiles_string=CCCn1cc(NC(=O)CCCCCCCC(=O)Nc2cc(-c3nc4ccc(-c5nc6ccc(N7CCN(C)CC7)cc6[nH]5)cc4[nH]3)n(CCC)c2)cc1-c1nc2ccc(-c3nc4ccc(N5CCN(C)CC5)cc4[nH]3)cc2[nH]1 experimental_system="tyrosyl-DNA phosphodiesterase 2 (TDP2) (Homo sapiens)" endpoint_label="remaining activity at 500 µM" result=~100%
smiles_string=CCCn1cc(NC(=O)CCCCC(=O)Nc2cc(-c3nc4ccc(-c5nc6ccc(N7CCN(C)CC7)cc6[nH]5)cc4[nH]3)n(CCC)c2)cc1-c1nc2ccc(-c3nc4ccc(N5CCN(C)CC5)cc4[nH]3)cc2[nH]1 experimental_system="tyrosyl-DNA phosphodiesterase 2 (TDP2) (Homo sapiens)" endpoint_label="remaining activity at 500 µM" result=~100%
